The reported numbers originate from patent US20220289837A1.

# System Name: T1, F508del-2PT-NBD1 (human, UniProt P13569 388-646, biotinylated for the ELISA (sites not given))
# T1 construct: also called F508del-2PT-NBD1 mutant
# T1 sequence (P13569 other isoform, or with tags, fused parts or gaps limits assumed, stated change not applied): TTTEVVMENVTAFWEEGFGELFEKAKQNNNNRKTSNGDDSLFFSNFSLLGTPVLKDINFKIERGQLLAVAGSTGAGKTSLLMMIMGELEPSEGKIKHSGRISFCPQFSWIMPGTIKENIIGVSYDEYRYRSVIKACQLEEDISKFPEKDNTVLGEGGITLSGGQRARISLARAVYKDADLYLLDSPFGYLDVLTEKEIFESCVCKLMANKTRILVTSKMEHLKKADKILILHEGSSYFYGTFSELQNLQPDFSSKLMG
# Protocol Text: ELISA, biotinylated F508del-2PT-NBD1 on avidin-coated plate, nanobody titrated, anti-His detection
Each item that follows carries a reported EC50 (read off the curve).

Binder | EC50 (read off the curve)
Nanobody G3a (VHH, not shown: small tags and cut ends, Llama nanobody, non-stabilizing; also called Nb G3a; G3a Nb) VHH: QVQLQESGGGLVQAGGSLRLSCTASGRAFSWYVMGWFRQAPGKEREFVATVSGNGSRRDYADSVKGRFTISRDNAKNTVYLQMNSLKPEDTAVYYCAASSTYYYTDPEKYDYWGQGTQVTVSS | ~2000 nM
Nanobody T2a (VHH, not shown: small tags and cut ends, Llama nanobody; also called Nb T2a; T2a Nb) VHH: QVQLQESGGGLVQAGGSLRLSCAASGSIFRIDAMGWYRQAPGKQRELVAHSTSGGSTDYADSVKGRFTISRDNAKNTVYLQMNSLKPEDTAVYYCNADVRTRWYASNNYWGQGTQVTVSS | ~10 nM
Nanobody D12 (VHH, not shown: small tags and cut ends, Llama nanobody raised against 2PT-NBD1; produced in E. coli periplasm; also called Nb D12; D12 Nb) VHH: QVQLQESGGGLVQAGSSLRLACAATGSIRSINNMGWYRQAPGKQRGMVAIITRVGNTDYADSVKGRFTISRDNAKNTVYLQMNSLKPEDTATYYCHAEITEQSRPFYLTDDYWGQGTQVTVSS | ~10 nM

Briefly, EC50 (read off the curve) measured for Nanobody T27 (VHH, not shown: small tags and cut ends, Llama nanobody; also called NbT27; T27 Nb) VHH: QVQLQESGGGLEQPGGSLRLSCATSGVIFGINAMGWYRQAPGKQRELVATFTSGGSTNYADFVEGRFTISRDNAKNTVYLQMNGLRPEDTAVYYCHATVVVSRYGLTYDYWGQGTQVTVSS : ~2 nM
